# assayedSystem: T1, human Claudin 18.2 (CLDN18.2) (human, UniProt P56856-2 1-261)
# T1 construct: whole, on cells; recombinantly expressed on CHO, HEK293, NCI-N87, NUGC4 or PANC-1 cells; also called CHO-CLDN18.2
# protocolSummary: FACS Exp. 1, MFI ratio CHO-18.2 over CHO-18.1
reportedEndpoint: MFI_CHO-18.2/CHO-18.1 (@30 ug/ml)
Provide a numeric answer; units are not to be included.

Q. Look up MFI_CHO-18.2/CHO-18.1 (@30 ug/ml): hz282-1 (antibody, V domains shown, humanized IgG; constant regions not specified; also called hz282-l) VH: QVQLQESGPGLVKPSETLSLTCTVSGFSLTSYNVYWIRQPPGKGLEWIGVIWNTGATRYNSALKSRVTISVDTSKNQFSLKLSSVTAADTAVYYCARDSAMPAIPFAYWGQGTLVTVSS VL: DIVMTQSPDSLAVSLGERATINCKSSQSLFGSVRQKNYLAWYQQKPGQPPKLLIYLASTRESGVPDRFSGSGSGTDFTLTISSLQAEDVAVYYCQQYYDIPWTFGGGTKVEIK
A. 262

Q. Can you look up the measured MFI_CHO-18.2/CHO-18.1 (@30 ug/ml) of reference antibody 175D10 (xi175D10) (antibody, human IgG1, kappa, V domains shown, Fc variant D356/L358; also called chimeric 175D10) VH: QVQLQQPGAELVRPGASVKLSCKASGYTFTSYWINWVKQRPGQGLEWIGNIYPSDSYTNYNQKFKDKATLTVDKSSSTAYMQLSSPTSEDSAVYYCTRSWRGNSFDYWGQGTTLTVSS VL: DIVMTQSPSSLTVTAGEKVTMSCKSSQSLLNSGNQKNYLTWYQQKPGQPPKLLIYWASTRESGVPDRFTGSGSGTDFTLTISSVQAEDLAVYYCQNDYSYPFTFGSGTKLEIKR for me?
A. 1030

Q. Suppose we examine the binder hz282-3 (antibody, V domains shown, humanized IgG; constant regions not specified) VH: QVQLQESGPGLVKPSETLSLTCTVSGFSLTSYNVYWIRQPPGKGLEWIGVIWNTGATRYNSALKSRVTISKDTSKSQVSLKLSSVTAADTAVYYCARDSAMPAIPFAYWGQGTLVTVSS VL: DIVMTQSPDSLAVSLGERATINCKSSQSLFGSVRQKNYLAWYQQKPGQPPKLLIYLASTRESGVPDRFSGSGSGTDFTLTISSLQAEDVAVYYCQQYYDIPWTFGGGTKVEIK ; what MFI_CHO-18.2/CHO-18.1 (@30 ug/ml) value has been reported?
A. 1100
